Test system: DU-145
Test: NCI tumour cell line growth inhibition, 48 h
The source made the active and inactive calls. Cut-off read from the data, not from the text of the source: active = GI50 up to about 1.1 µM and inactive = higher. Where a SMILES comes first, the peptide text is derived from it. [ ]: non-standard residue; d: D form. The star is where a group is joined. NMeAc5c = CNC1(C(=O)O)CCCC1; Boc = CC(C)(C)OC(=O)*; OBn = c1ccc(CO*)cc1
endpointName: GI50

// COC(=NCCC1=CCCCC1)OC : GI50 value = > 100 µM (inactive)

// COc1ccccc1/C=C1\Sc2scc(-c3ccc(O)c(O)c3)[n+]2C1=O : GI50 value = 21.4 µM (inactive)

// COc1cc(Oc2nc3cc(F)c(F)cc3nc2-c2ccccc2)cc(OC)c1OC : GI50 value = > 100 µM (inactive)

// CC(=O)Oc1ccc2c(c1)CC[C@@H]1C2CC[C@]2(C)C(=O)NC(=O)CC12 (stereo partly specified) : GI50 value = > 100 µM (inactive)

// CN(C(=O)C(Cc1ccccc1)NC(=O)OC(C)(C)C)C1(C(=O)NC(Cc2ccccc2)C(=O)OCc2ccccc2)CCCC1 (stereo not drawn) (Boc-Phe-[NMeAc5c]-Phe-OBn; configuration not given here) : GI50 value = 58.3 µM (inactive)

// CC(=O)Nc1ccc2[nH]c(C(=O)N3CC(CCl)c4c3cc(N)c3ccccc43)cc2c1 (stereo unspecified) : GI50 value = < 0.01 µM (active)
